- EXPERIMENTAL_TARGET: full-length proMMP9(1-707) activation by catalytic MMP3 (Homo sapiens, UniProt P14780, R574P)
- Construct: MMP3: E. coli
- Sequence (P14780 20-707 R574P): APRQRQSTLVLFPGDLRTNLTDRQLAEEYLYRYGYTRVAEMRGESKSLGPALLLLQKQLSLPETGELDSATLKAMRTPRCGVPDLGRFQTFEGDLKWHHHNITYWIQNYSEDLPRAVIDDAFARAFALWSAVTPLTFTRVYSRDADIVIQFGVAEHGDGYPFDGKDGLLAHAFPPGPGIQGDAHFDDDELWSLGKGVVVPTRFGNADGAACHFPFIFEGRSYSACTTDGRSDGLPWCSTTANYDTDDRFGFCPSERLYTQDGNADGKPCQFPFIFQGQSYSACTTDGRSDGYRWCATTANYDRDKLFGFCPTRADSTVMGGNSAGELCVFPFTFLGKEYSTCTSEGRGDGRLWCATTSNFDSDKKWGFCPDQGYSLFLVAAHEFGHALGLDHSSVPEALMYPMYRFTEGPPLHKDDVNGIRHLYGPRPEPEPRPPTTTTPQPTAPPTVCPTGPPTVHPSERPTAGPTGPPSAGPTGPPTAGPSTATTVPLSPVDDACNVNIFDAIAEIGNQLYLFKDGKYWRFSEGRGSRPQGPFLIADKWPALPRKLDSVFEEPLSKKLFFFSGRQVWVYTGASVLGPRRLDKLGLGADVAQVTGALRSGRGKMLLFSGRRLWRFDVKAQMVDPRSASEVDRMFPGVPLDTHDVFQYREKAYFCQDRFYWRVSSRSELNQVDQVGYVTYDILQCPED
- PROTOCOL_SUMMARY: proMMP9/MMP3 P126 Activation Assay
Define the label as 1 when IC50 is strictly less than 0.3 µM and as -1 in all remaining cases.

Here's what some known entries look like.
{"columns": ["MOLECULE", "ASSIGNED_CATEGORY"],
 "data": [
  ["Cn1cnc2c3nc(Nc4cc(C#N)ccc4OC(F)(F)F)sc3ccc21 [Example 164]", 1],
  ["CNS(=O)(=O)c1ccc(OC)c(Nc2nc3c(ccc4c3ncn4C)s2)c1 [Example 82]", -1],
  ["COc1ccc(S(C)(=O)=O)cc1Nc1nc2c(ccc3c2ccn3C)s1 [Example 163]", 1]
]}

Note: attention shifts to another entry.
Problem: For the molecule CC(C)Oc1ccc(C(N)=O)cc1Nc1nc2c(ccc3ccncc32)s1 [Example 89] , is IC50 under 0.3 µM?
-1
